# test_protocol: physchem
# condition_details: octan-1-ol/water, pH 7.4, LogD7.4
logD below 2 gives false (0); logD at or above it gives true (1).

1. CCCCC(NC(=O)CC1CCN(Cc2ccn(-c3ccc(C(F)(F)F)cc3)c2)CC1)c1ccc(=O)[nH]c1 (centres undefined) ... true (1)
2. COc1cc2nnc(C(N)=O)c(Nc3ccc(C)cc3F)c2cc1N1CCN(C)CC1 ... true (1)
3. O=C(Nc1c[nH]nc1-c1nc2cc(CN3CCOCC3)ccc2[nH]1)NC1CC1 [AT-9283] ... true (1)

Decide: is the reported value of logD for COCCNCc1ccc(Nc2ncc3cc(-c4ccncc4)ccc3n2)cc1 equal to or greater than 2?
false (0)

Decide: is the reported value of logD for Nc1nc2nc(SCc3ccccc3)nc(N)c2s1 equal to or greater than 2?
true (1)

Decide: is the reported value of logD for CC(C)C(NC(=O)Cn1c(-c2ccccc2)ccc(NC(=O)Cc2ccc(C(=O)O)cc2)c1=O)C(=O)C(F)(F)F (centres undefined) equal to or greater than 2?
false (0)

Decide: is the reported value of logD for Cc1c(Cl)ccc(OC2CCN(C[C@H](O)CNC(=O)c3c[nH]c(=O)cc3C(F)(F)F)CC2)c1Cl equal to or greater than 2?
true (1)

Decide: is the reported value of logD for CNC(=C[N+](=O)[O-])NCCSCc1ccc(CN(C)C)o1 [RANITIDINE] equal to or greater than 2?
false (0)

Decide: is the reported value of logD for CCC(c1nc2sccc2c(=O)n1Cc1ccccc1)N(CCCN)C(=O)c1ccc(C)cc1 (centres undefined) equal to or greater than 2?
true (1)

Decide: is the reported value of logD for Oc1ccc(-c2nc3ccc(O)cc3s2)cc1 equal to or greater than 2?
true (1)

Decide: is the reported value of logD for Cc1c(CN(C)C(=O)/C=C/c2cnc3c(c2)CCC(=O)N3)oc2ccccc12 [AFN-1252] equal to or greater than 2?
true (1)

* * *

# test_protocol: in vitro
# condition_details: SD, HW or BN, rat, plasma
fraction unbound at 5 h below 0.05 gives F; fraction unbound at 5 h at or above it gives T.

Answered cases to consult:
1) CC(C)(C)S(=O)(=O)CCCN1CCN(CC(=O)NC23CC4CC(CC(C4)C2)C3)CC1 ... T
2) O=c1[nH]c2c(O)ccc([C@@H](O)CNCCCOCCOCCc3ccccc3)c2s1 ... T
3) COC(=O)C1=C(C)NC(C)=C(C(=O)OCCN(C)Cc2ccccc2)C1c1cccc([N+](=O)[O-])c1 (centres undefined) ... F
4) Cc1ccc(S(=O)(=O)Nc2c(C(=O)N[C@@H](C)C(C)(C)C)c(C)nn2C(C)C)cc1 ... F
5) CNC(=O)c1ccc(C)c(-n2c(C)cc(OCc3ccc(F)cc3F)c(Br)c2=O)c1 ... F

Decide: is the reported value of fraction unbound at 5 h for CCN(CC)CCNC(=O)c1ccc(NS(C)(=O)=O)cc1 [SEMATILIDE] equal to or greater than 0.05?
T

Decide: is the reported value of fraction unbound at 5 h for CC(C)C(NC(=O)c1cc(Cl)ccc1C(F)(F)F)C(=O)c1ccc([N+](=O)[O-])cc1 (centres undefined) equal to or greater than 0.05?
F

Decide: is the reported value of fraction unbound at 5 h for N[C@H]1CCN(c2c(Cl)cccc2/C=C2\SC(=O)NC2=O)C1 equal to or greater than 0.05?
F

Decide: is the reported value of fraction unbound at 5 h for O=C(NCc1ccc(OC(F)(F)F)cc1)C1c2ccccc2C(=O)N1CCc1ncccn1 (centres undefined) equal to or greater than 0.05?
T
